- SYSTEM: Human HER3, endogenous, on human cancer cell lines (SK-Br-3, MCF7, BT-474) (human, UniProt P21860 20-1342)
- Sequence (P21860 20-1342): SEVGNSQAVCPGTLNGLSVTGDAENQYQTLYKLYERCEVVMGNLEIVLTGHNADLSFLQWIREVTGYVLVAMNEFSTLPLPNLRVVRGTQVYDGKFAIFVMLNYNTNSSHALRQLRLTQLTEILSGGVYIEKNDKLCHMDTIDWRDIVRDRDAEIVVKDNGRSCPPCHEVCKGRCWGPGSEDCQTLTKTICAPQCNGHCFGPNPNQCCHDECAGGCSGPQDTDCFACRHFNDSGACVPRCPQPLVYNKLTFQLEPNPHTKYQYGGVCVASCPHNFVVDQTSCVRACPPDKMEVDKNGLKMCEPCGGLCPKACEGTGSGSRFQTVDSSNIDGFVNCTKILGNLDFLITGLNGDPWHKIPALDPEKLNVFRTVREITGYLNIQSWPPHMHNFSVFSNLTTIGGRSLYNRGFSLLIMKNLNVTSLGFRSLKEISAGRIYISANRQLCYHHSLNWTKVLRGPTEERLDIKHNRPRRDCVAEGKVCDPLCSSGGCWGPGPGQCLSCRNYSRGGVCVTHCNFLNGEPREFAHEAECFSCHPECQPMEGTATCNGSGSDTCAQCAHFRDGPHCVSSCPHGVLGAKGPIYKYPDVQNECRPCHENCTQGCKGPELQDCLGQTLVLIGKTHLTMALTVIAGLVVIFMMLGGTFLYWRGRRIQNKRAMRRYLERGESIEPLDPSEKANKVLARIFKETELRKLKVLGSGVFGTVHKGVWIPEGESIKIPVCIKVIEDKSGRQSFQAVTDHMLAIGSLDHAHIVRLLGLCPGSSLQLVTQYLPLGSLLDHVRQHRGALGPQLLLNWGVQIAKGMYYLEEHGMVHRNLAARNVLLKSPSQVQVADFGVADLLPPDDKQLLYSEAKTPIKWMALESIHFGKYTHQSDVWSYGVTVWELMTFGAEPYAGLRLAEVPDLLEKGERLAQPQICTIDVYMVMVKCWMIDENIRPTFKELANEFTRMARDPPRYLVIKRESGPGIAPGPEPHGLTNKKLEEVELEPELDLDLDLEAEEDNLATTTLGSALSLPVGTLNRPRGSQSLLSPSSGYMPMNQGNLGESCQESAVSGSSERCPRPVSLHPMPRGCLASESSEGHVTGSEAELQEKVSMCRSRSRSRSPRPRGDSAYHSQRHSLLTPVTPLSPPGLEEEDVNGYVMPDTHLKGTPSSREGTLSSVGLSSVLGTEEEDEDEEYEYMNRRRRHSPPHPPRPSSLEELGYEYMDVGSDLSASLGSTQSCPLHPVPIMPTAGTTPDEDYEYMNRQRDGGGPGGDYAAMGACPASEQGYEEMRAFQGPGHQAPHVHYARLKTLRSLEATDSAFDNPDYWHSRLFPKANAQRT
- ASSAY_REMARKS: cell-based or functional assay
Below is a list of entries, each paired with its recorded SK-Br-3 pHER3 IC50 value.
Your answer should be a plain number; it is taken to be in pM.

# count of solved cases: 2
* MOR13768 (antibody, human IgG1, kappa, V domains shown, tested as IgG) VH: QVQLVQSGAEVKKPGESLKISCKGSGYSFTSSWVAWVRQMPGKGLEWMGIIYPGQSDTIYSPSFQGQVTISADKSISTAYLQWSSLKASDTAMYYCARVHIIQPPSAWSYNAMDVWGQGTLVTVSS VL: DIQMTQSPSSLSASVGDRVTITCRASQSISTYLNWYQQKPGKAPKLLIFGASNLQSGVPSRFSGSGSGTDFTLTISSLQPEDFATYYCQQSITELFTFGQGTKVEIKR | 139
* MOR13869 (antibody, human IgG1, kappa, V domains shown, tested as IgG) VH: QVQLVQSGAEVKKPGESLKISCKGSGYSFSNYWIAWVRQMPGKGLEWMGIIYPGGSDTIYSPSFQGQVTISADKSISTAYLQWSSLKASDTAMYYCARVHIIQPPSAWSYNAMDVWGQGTLVTVSS VL: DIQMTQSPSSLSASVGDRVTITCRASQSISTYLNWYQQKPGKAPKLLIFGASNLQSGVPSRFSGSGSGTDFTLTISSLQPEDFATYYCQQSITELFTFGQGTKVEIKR | 263

Now consider a different binder.
Problem: Respond only with SK-Br-3 pHER3 IC50 recorded for MOR13758 (antibody, human IgG1, kappa, V domains shown, tested as IgG) VH: QVQLVQSGAEVKKPGESLKISCKGSGYSFTLYWVAWVRQMPGKGLEWMGIIYPGQSDTIYSPSFQGQVTISADKSISTAYLQWSSLKASDTAMYYCARVHIIQPPSAWSYNAMDVWGQGTLVTVSS VL: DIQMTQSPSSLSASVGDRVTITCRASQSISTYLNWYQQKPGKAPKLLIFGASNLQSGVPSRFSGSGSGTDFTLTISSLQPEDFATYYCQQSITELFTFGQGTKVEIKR
Result: 91
